List of OD490 values.
# tgt: T1, M2-1
# T1 construct: also called PD1 mutant M2-1
# protocol notes: scFv-phage ELISA
recorded metric: OD490

>>> reading("PD1-31F3 (antibody, V domains shown, scFv-phage in the screening ELISA; later whole IgG) VH: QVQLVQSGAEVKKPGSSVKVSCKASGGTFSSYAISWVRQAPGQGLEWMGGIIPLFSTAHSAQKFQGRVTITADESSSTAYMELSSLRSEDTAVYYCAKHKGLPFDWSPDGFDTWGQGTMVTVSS VL: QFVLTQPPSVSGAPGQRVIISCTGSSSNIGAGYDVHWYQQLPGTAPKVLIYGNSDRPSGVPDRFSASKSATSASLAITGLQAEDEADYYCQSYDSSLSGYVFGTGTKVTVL")
3.5
>>> reading("PD1-52E8 (antibody, V domains shown, scFv-phage in the screening ELISA; whole IgG in the other assays) VH: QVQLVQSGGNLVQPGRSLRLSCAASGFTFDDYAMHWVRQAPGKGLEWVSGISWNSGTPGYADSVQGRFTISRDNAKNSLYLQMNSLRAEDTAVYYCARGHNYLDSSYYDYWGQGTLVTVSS VL: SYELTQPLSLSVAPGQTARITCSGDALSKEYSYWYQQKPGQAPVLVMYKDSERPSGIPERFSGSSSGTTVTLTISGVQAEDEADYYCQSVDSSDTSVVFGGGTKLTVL")
2.9
>>> reading("PD1-51D9 (antibody, V domains shown, scFv-phage in the screening ELISA; whole IgG in the other assays) VH: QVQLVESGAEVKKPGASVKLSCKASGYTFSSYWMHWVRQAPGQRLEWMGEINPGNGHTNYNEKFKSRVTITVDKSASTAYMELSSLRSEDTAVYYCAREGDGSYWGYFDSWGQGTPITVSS VL: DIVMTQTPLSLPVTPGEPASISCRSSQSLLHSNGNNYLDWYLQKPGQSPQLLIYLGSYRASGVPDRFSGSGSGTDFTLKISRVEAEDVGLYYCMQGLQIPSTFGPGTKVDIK")
0.4
>>> reading("PD1-44B5 (antibody, V domains shown, scFv-phage in the screening ELISA; later whole IgG) VH: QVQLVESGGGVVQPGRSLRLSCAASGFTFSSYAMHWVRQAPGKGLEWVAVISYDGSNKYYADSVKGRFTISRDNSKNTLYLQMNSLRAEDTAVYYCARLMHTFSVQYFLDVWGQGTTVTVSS VL: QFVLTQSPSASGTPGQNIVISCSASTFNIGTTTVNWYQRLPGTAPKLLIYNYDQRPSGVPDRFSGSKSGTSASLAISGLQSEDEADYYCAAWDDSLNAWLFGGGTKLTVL")
3.6
>>> reading("PD1-32A6 (antibody, V domains shown, scFv-phage in the screening ELISA; later whole IgG) VH: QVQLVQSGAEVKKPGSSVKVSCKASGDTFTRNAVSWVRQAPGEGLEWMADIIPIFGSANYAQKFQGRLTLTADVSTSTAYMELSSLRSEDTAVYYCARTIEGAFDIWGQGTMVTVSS VL: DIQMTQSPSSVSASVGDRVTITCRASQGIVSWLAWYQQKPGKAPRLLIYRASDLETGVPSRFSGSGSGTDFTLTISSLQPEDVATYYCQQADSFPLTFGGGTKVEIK")
2.8
>>> reading("PD1-48A9 (antibody, V domains shown, scFv-phage in the screening ELISA; whole IgG in the other assays) VH: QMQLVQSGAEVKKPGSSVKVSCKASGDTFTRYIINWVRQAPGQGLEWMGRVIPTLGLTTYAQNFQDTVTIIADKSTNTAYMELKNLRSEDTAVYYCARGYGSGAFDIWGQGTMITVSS VL: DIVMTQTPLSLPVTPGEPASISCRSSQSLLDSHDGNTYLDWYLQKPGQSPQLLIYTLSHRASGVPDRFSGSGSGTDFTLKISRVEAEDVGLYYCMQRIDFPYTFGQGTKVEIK")
3.8
>>> reading("PD1-45D6 (antibody, V domains shown, scFv-phage in the screening ELISA; whole IgG in the other assays) VH: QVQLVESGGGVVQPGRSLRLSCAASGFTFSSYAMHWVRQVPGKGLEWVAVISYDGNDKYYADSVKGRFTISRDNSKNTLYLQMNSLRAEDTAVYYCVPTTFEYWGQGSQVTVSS VL: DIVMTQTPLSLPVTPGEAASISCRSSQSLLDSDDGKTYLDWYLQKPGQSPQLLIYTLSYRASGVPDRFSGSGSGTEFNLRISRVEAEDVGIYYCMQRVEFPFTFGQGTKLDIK")
3.9
>>> reading("PD1-41C9 (antibody, V domains shown, scFv-phage in the screening ELISA; whole IgG in the other assays) VH: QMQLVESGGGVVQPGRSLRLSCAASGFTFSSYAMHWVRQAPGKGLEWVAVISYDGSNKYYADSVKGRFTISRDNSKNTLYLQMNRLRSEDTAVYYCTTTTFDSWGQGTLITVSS VL: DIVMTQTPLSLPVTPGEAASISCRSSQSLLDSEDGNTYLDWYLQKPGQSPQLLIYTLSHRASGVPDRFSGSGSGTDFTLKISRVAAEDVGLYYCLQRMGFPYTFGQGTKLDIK")
3.4
>>> reading("PD1-29H3 (antibody, V domains shown, scFv-phage in the screening ELISA; later whole IgG) VH: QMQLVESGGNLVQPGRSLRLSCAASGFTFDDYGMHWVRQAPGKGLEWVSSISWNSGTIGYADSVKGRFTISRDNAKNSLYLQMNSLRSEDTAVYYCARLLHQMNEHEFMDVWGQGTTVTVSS VL: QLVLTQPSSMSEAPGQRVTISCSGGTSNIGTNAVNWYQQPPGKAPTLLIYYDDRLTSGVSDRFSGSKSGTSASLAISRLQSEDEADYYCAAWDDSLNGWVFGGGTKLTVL")
2.8
>>> reading("PD1-45F1 (antibody, V domains shown, scFv-phage in the screening ELISA; later whole IgG) VH: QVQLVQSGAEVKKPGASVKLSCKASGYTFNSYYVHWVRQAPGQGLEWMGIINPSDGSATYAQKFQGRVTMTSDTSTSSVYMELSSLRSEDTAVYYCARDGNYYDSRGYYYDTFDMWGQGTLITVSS VL: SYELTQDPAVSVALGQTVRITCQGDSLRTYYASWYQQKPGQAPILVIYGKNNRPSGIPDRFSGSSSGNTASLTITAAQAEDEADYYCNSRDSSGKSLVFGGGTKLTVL")
3.9
